# Test system: rodent lifetime carcinogenesis bioassay, tumor incidence TD50
# Measurement description: carcinogenic potency in animals, long-term in vivo studies, CPDB compilation (AID 1745844)
# Condition summary: mouse; strain B6C3F1; females; oral dosing; site: any site (literature study); lesion: several types; types named in the paper; dosed 83 weeks; study length 83 weeks
Assay metric: TD50 (mg/kg/day)
Could you give me the number in mg/kg/day? Just the number is fine.

q: Look up TD50 for this compound: CC(C)N(C(=O)SCC(Cl)=CCl)C(C)C
a: 90.8

====

# Tested on: rodent lifetime carcinogenesis bioassay, tumor incidence TD50
# Measurement description: carcinogenic potency in animals, long-term in vivo studies, CPDB compilation (AID 1745844)
# Condition summary: mouse; strain B6C3F1; females; by gavage; site: liver; lesion: hepatocellular adenoma + hepatocellular carcinoma + neoplastic nodule; dosed 104 weeks; study length 106 weeks
Assay metric: TD50 (mg/kg/day)
Numbers only; they are read as mg/kg/day.

q: Would you mind telling me what TD50 value was observed for ClC=CCCl ?
a: 89.3

====

# Test system: rodent lifetime carcinogenesis bioassay, tumor incidence TD50
# Measurement description: carcinogenic potency in animals, long-term in vivo studies, CPDB compilation (AID 1745844)
# Condition summary: rat; strain F344/DuCrj; females; in drinking water; site: thyroid follicle; lesion: papillary adenoma; dosed 103 weeks; study length 111 weeks
Assay metric: TD50 (mg/kg/day)
Record the value in mg/kg/day, omitting the unit from your answer.

q: Which TD50 reading was recorded for the molecule CCN(N=O)C(N)=O ?
a: 8.7

====

# System: rodent lifetime carcinogenesis bioassay, tumor incidence TD50
# Measurement description: carcinogenic potency in animals, long-term in vivo studies, CPDB compilation (AID 1745844)
# Condition summary: rat; strain F344/DuCrj; females; in drinking water; site: tongue; lesion: several types; types named in the paper; dosed 50 weeks; study length 50 weeks
Assay metric: TD50
The reply should read as a number followed by its unit.

q: Look up TD50: CCCCN(N=O)C(N)=O
a: 10.2 mg/kg/day

====

# Tested on: rodent lifetime carcinogenesis bioassay, tumor incidence TD50
# Measurement description: carcinogenic potency in animals, long-term in vivo studies, CPDB compilation (AID 1745844)
# Condition summary: mouse; strain Swiss; females; i.p.; site: subcutaneous tissue; lesion: carcinoma; dosed 26 weeks; study length 78 weeks
Assay metric: TD50 (mg/kg/day)
Just the number in mg/kg/day, nothing appended.

q: Identify the measured TD50 of O[C@@H]([C@H](O)[C@H](O)CBr)[C@H](O)CBr for rodent lifetime carcinogenesis bioassay, tumor incidence TD50.
a: 66

====

Some molecules, each annotated with its measured TD50.
# Test system: rodent lifetime carcinogenesis bioassay, tumor incidence TD50
# Measurement description: carcinogenic potency in animals, long-term in vivo studies, CPDB compilation (AID 1745844)
# Condition summary: mouse; strain B6C3F1; males; by gavage; site: subcutaneous tissue; lesion: fibrosarcoma + fibroma; dosed 103 weeks; study length 104 weeks
Kindly provide the numeric value in mg/kg/day only, without the unit symbol.

CC1=CC(=O)CC(C)(C)C1
654

Now look at this entry.
q: Form field: reported TD50 of O=Cc1ccco1
a: 190

====

# System: rodent lifetime carcinogenesis bioassay, tumor incidence TD50
# Measurement description: carcinogenic potency in animals, long-term in vivo studies, CPDB compilation (AID 1745844)
# Condition summary: rat; strain Wistar; males; in drinking water; site: pituitary gland; lesion: one or several types; types not named; dosed 182 weeks; study length 182 weeks
Assay metric: TD50 (mg/kg/day)
Your answer is read as mg/kg/day, so omit the unit and give the number.

q: Which TD50 is listed for ClC(Cl)Br ?
a: 911

====

# Tested on: rodent lifetime carcinogenesis bioassay, tumor incidence TD50
# Measurement description: carcinogenic potency in animals, long-term in vivo studies, CPDB compilation (AID 1745844)
# Condition summary: mouse; strain B6C3F1; males; in feed; site: liver; lesion: hepatocellular adenoma + hepatocellular carcinoma; dosed 101 weeks; study length 103 weeks
Assay metric: TD50

q: // returns reported TD50 for input CCC1(c2ccccc2)C(=O)NCNC1=O
a: 60.4 mg/kg/day

====

# Tested on: rodent lifetime carcinogenesis bioassay, tumor incidence TD50
# Measurement description: carcinogenic potency in animals, long-term in vivo studies, CPDB compilation (AID 1745844)
# Condition summary: mouse; strain B6C3F1; males; in feed; site: liver; lesion: hepatocellular adenoma; dosed 104 weeks; study length 105 weeks
Calls of active or inactive are those of the source. No rule for the calls is given here.
Assay metric: TD50

q: Param readout = TD50; param system = rodent lifetime carcinogenesis bioassay, tumor incidence TD50; param query = Cc1ccc(/C(=C\CN2CCCC2)c2ccccn2)cc1 ; response: value
a: 2330 mg/kg/day (inactive)

====

# System: rodent lifetime carcinogenesis bioassay, tumor incidence TD50
# Measurement description: carcinogenic potency in animals, long-term in vivo studies, CPDB compilation (AID 1745844)
# Condition summary: rat; strain Fischer 344; males; in drinking water; site: brain; lesion: astrocytoma; dosed 107 weeks; study length 107 weeks
Assay metric: TD50 (mg/kg/day)
Answer format: numeric, mg/kg/day implied, no suffix.

q: Which TD50 is reported for this molecule? C=CC(N)=O
a: 76.8

====

# System: rodent lifetime carcinogenesis bioassay, tumor incidence TD50
# Measurement description: carcinogenic potency in animals, long-term in vivo studies, CPDB compilation (AID 1745844)
# Condition summary: mouse; strain B6C3F1; females; in feed; site: lung; lesion: alveolar/bronchiolar adenoma + alveolar/bronchiolar carcinoma; dosed 49 weeks; study length 49 weeks
Assay metric: TD50
Param answer (str): number followed by unit.

q: Field request: TD50 | item: Cc1ccc2c(c1[N+](=O)[O-])C(=O)c1ccccc1C2=O
a: 97.3 mg/kg/day

====

# Test system: rodent lifetime carcinogenesis bioassay, tumor incidence TD50
# Measurement description: carcinogenic potency in animals, long-term in vivo studies, CPDB compilation (AID 1745844)
# Condition summary: rat; strain Fischer 344; females; by gavage; site: adrenal gland; lesion: pheochromocytoma; dosed 106 weeks; study length 108 weeks
Assay metric: TD50 (mg/kg/day)
Response body: numeric value in mg/kg/day, unit text excluded.

q: So what does the record say about TD50 for Cc1ccc(N=C=O)cc1N=C=O ?
a: 143

====

# System: rodent lifetime carcinogenesis bioassay, tumor incidence TD50
# Measurement description: carcinogenic potency in animals, long-term in vivo studies, CPDB compilation (AID 1745844)
# Condition summary: rat; strain Fischer 344; males; in drinking water; site: skin; lesion: basal-cell adenoma + sebaceous adenoma; dosed 88 weeks; study length 92 weeks
Assay metric: TD50 (mg/kg/day)
Reply with just the number (in mg/kg/day).

q: Using the record for COc1cc(-c2ccc(N)c(OC)c2)ccc1N , report its TD50.
a: 0.785

====

# System: rodent lifetime carcinogenesis bioassay, tumor incidence TD50
# Measurement description: carcinogenic potency in animals, long-term in vivo studies, CPDB compilation (AID 1745844)
# Condition summary: rat; strain MRC-Wistar; females; in drinking water; site: any site (literature study); lesion: several types; types named in the paper; dosed 52 weeks; study length 130 weeks
Assay metric: TD50

q: Report TD50 for CN(N=O)C(=O)c1ccccc1 please.
a: 11.2 mg/kg/day

====

# Tested on: rodent lifetime carcinogenesis bioassay, tumor incidence TD50
# Measurement description: carcinogenic potency in animals, long-term in vivo studies, CPDB compilation (AID 1745844)
# Condition summary: rat; strain Fischer 344; females; by gavage; site: any site (literature study); lesion: several types; types named in the paper; dosed 104 weeks; study length 104 weeks
Activity calls are given as the source filed them. No rule for the calls is given here.
Recorded TD50, one value per entry.

O=P(OCCCl)(OCCCl)OCCCl
39.9 mg/kg/day
C=C(C)C#N
323 mg/kg/day (inactive)
COC1COC(OC2COC(OC3COC(OC4COC(OC)C(OS(=O)(=O)O)C4OS(=O)(=O)O)C(OC4OC(C(=O)O)C(OC)C(OS(=O)(=O)O)C4OS(=O)(=O)O)C3OS(=O)(=O)O)C(OS(=O)(=O)O)C2OS(=O)(=O)O)C(OS(=O)(=O)O)C1OS(=O)(=O)O (centres undefined)
1980 mg/kg/day (inactive)

--- query ---
q: Given the entry C/C=C/C=C/C=O , report its measured TD50.
a: 112 mg/kg/day

====

# Tested on: rodent lifetime carcinogenesis bioassay, tumor incidence TD50
# Measurement description: carcinogenic potency in animals, long-term in vivo studies, CPDB compilation (AID 1745844)
# Condition summary: mouse; strain CD-1 HaM/ICR; males; in feed; site: all sites; lesion: all vascular tumors; dosed 77 weeks; study length 98 weeks
Assay metric: TD50

q: Find the recorded TD50 belonging to Cc1cc(C)c(N)cc1C and report it.
a: 260 mg/kg/day

====

# System: rodent lifetime carcinogenesis bioassay, tumor incidence TD50
# Measurement description: carcinogenic potency in animals, long-term in vivo studies, CPDB compilation (AID 1745844)
# Condition summary: rat; strain Fischer 344; females; by gavage; site: thyroid gland; lesion: follicular-cell adenoma; dosed 104 weeks; study length 105 weeks
Assay metric: TD50 (mg/kg/day)
Reply with just the number (in mg/kg/day).

q: Value lookup for TD50; key = CCCC(Cl)CCCC(Cl)CCC(Cl)CCC(Cl)CCC(Cl)CCCC(Cl)CCC (stereo unspecified)
a: 736
